System: HL-60(TB) leukemia
Test: NCI tumour cell line growth inhibition, 48 h
Binary classification by TGI, with 5 µM as an inclusive lower bound for YES; all other cases are NO.

[[record]]
compound = "CN1CCN(c2c(Cl)cc(Cl)c3[nH]c4ccccc4c(=O)c23)CC1"
answer_label = "NO"

[[record]]
compound = "N=c1oc2ccc3ccccc3c2cc1C(N)=O"
answer_label = "YES"

[[record]]
compound = "COc1ccc(-c2nc3sc(-c4ccc(Cl)cc4)cn3n2)cc1"
answer_label = "YES"

[[record]]
compound = "O=C(c1ccc(Cl)cc1)c1ccc(OCCCCCCCCCCOc2ccc(C(=O)c3ccc(Cl)cc3)cc2)cc1"
answer_label = "YES"

[[record]]
compound = "O=Nc1c(-c2c(O)[nH]c3ccc([N+](=O)[O-])cc23)[nH]c2ccc(O)cc12"
answer_label = "NO"

[[record]]
compound = "COC(=O)C1C(O)CC(c2ccccn2)N(Cc2ccccc2)C1c1ccccn1 (stereo not given)"
answer_label = "YES"

[[record]]
compound = "O=[N+]([O-])c1ccc(S(=O)Cc2ccccc2)c([N+](=O)[O-])c1 (stereo not given)"
answer_label = "YES"

[[record]]
compound = "Oc1ccc(C(c2ccc(O)cc2)c2ccc(Cl)cn2)cc1"
answer_label = "YES"

[[record]]
compound = "NC1CCCCC1.[O]=[Ge].[O]=[Ge].[O]=[Ge][OH].[O]=[Ge][OH]"
answer_label = "YES"

